- test_protocol: antivirals protecting cells from dengue CPE – CPE readout, HTS (AID 540333)
- protocol_conditions: Dengue virus CPE inhibition in host cells, at 20 µM
Out of some 10,000 compounds screened, about 320 (3.2%) were called active. Cut-off read from the data, not from the text of the source: active = CPE inhibition mostly above about 9.1% (no sharp cut-off); inactive = mostly below about 7.2%. Many of the other results were omitted from the sample, so actives are more common in it than they were.
Outcomes: True = active, False = inactive

1. CCN(CC)c1ccc(S(=O)(=O)Nc2cc(Cl)ccc2Cl)cc1NC(=S)NC(=O)C1CCCC1 :: True
2. c1cnc2cc(-c3ccsc3)ncc2c1 :: False
3. N#C/C(=C\c1cccn1-c1ccccc1)C(=O)NC1CCCCC1 :: False
4. COC(=O)c1c(NC(=O)CN2C(=O)NC(CCc3ccccc3)C2=O)sc2c1CCCCC2 (configuration not stated) :: True
5. O=C(COC(=O)/C(=C/c1cccs1)c1cccs1)NC(c1ccccc1)c1ccccc1 :: True
6. COC(=O)NNC(=O)COc1ccc2ccccc2c1Br :: False
7. Cc1ccccc1C(=O)Nc1c2c(nc3ccccc13)CCCC2 :: False
8. CCOc1ccc(S(=O)(=O)c2c(C(=O)c3ccc(C)cc3)cnc3cc4c(cc23)OCCO4)cc1 :: False
9. Cc1ccccc1-n1c(C)nnc1SCC(=O)NC1CCCc2ccccc21 (configuration not stated) :: False
10. CCCN(CC(=O)Nc1ccc(F)c(F)c1F)CC(=O)Nc1c(Cl)cccc1Cl :: False
11. COC(=O)N1[C@H](C)C=C[C@]1(Cc1ccccc1)C(=O)NCCCNc1ncc(C(F)(F)F)cc1Cl :: True
12. C/C(=N\Nc1ccc(Cl)c(Cl)c1)c1ccc(-n2ccnc2)cc1 :: False
13. O=C(COC(=O)CNS(=O)(=O)c1ccc2ccccc2c1)Nc1ccccc1Sc1ccccc1 :: False
14. O=C1CN(C(=O)CSc2nnc(Nc3ccccc3)s2)c2ccccc2N1 :: False
15. COC(=O)c1c(NC(C)=O)sc2c1CCCCC2 :: False
16. O=C(COC(=O)c1cc(-c2ccccc2Cl)nc2ccccc12)Nc1ncc(C(F)(F)F)cc1Cl :: False
17. CCOC(=O)C1=C(C)NC(=O)C1CC(=O)O (configuration not stated) :: False
18. CC12CCC(C(=O)N(c3cccc(Cl)c3)C1=O)C2(C)C (configuration not stated) :: False
19. O=C(CSc1nc2ccccc2s1)NC1CCCc2ccccc21 (configuration not stated) :: False
20. Cc1ccccc1N1CCN(C(=S)c2ccc([N+](=O)[O-])cc2)CC1 :: False
21. O=C(COC(=O)Cc1ccsc1)NC(c1ccccc1)c1ccccc1 :: False
22. Cc1ccc(C(=O)c2cnc3cc4c(cc3c2S(=O)(=O)c2ccccc2)OCCO4)cc1 :: False
23. S=C(Nc1ccc(OCc2ccccc2)cc1)Nc1cccc(Cl)c1Cl :: False
24. CCN(CC)S(=O)(=O)c1ccc(C)c(NC(=S)NNC(=O)C2CC2)c1 :: False
25. COc1cccc(NC(=O)CN(C)C(=O)COc2ccc3ccccc3c2)c1 :: False
26. CC(=O)N1c2ccccc2[C@H](C)[C@H]1C :: False
27. O=C(NNc1ccccc1Cl)C(O)(c1cccc(C(F)(F)F)c1)c1cccc(C(F)(F)F)c1 :: True
28. COc1cc(CNn2cn[nH]c2=S)cc(Cl)c1OCc1ccc(F)cc1 :: False
29. S=C(Nc1ccccc1Oc1ccccc1)Nc1cccc(Cl)c1Cl :: True
30. Cc1cccc(C(O)(C(=O)NNc2ccc3ccccc3n2)c2cccc(C)c2)c1 :: False
31. O=C1C2C3C=CC(c4ccccc4)(C2C(=O)N1c1cccc(Cl)c1)C1C(=O)N(c2cccc(Cl)c2)C(=O)C31 (configuration not stated) :: True
32. COC(=O)c1c(NC(=O)COC(=O)c2ccc(Cl)cc2[N+](=O)[O-])sc2c1CCCCC2 :: False
33. O=C(NCc1ccccc1)c1onc(CSc2ccc(F)c(F)c2)c1C(=O)NCc1ccccc1 :: False
34. CC1(OC(=O)C2CCCC2)C(=O)C=C2C=C3CCCCN3C=C2C1=O (configuration not stated) :: False
35. O=C1C2C(c3ccccc3)(C(=O)N1c1ccc(Cl)cc1)C2(c1ccccc1)c1ccccc1 (configuration not stated) :: False
36. CCOC(=O)c1c(NC(=O)COC(=O)c2ccccn2)sc2c1CCC2 :: False
37. CCOC(=O)/C=C/C(=O)OCC(=O)NC(c1ccccc1)c1ccccc1 :: False
38. Cc1cccc(Nc2nnc(SCC(=O)NC3CCCc4ccccc43)s2)c1C (configuration not stated) :: True
39. CN(C)c1ccc(N=Nc2ccccc2C(=O)OCC(=O)N2CCCCCC2)cc1 :: False
40. CC(C)[C@H](NS(=O)(=O)c1ccccc1)C(=O)OCC(=O)Nc1ccccc1Sc1ccccc1 :: True
41. COC(=O)c1c(NC(=O)COC(=O)[C@@H](NS(=O)(=O)c2ccccc2)C(C)C)sc2c1CCC2 :: True
42. COc1cc(NC(=O)CSc2nc3c(C)ccc(C)c3cc2C)c(C(=O)O)cc1OC :: False
